Entries annotated with measured EC50
Biological target: human TLR8 (Homo sapiens, UniProt Q9NR97)
Sequence (Q9NR97 27-1041): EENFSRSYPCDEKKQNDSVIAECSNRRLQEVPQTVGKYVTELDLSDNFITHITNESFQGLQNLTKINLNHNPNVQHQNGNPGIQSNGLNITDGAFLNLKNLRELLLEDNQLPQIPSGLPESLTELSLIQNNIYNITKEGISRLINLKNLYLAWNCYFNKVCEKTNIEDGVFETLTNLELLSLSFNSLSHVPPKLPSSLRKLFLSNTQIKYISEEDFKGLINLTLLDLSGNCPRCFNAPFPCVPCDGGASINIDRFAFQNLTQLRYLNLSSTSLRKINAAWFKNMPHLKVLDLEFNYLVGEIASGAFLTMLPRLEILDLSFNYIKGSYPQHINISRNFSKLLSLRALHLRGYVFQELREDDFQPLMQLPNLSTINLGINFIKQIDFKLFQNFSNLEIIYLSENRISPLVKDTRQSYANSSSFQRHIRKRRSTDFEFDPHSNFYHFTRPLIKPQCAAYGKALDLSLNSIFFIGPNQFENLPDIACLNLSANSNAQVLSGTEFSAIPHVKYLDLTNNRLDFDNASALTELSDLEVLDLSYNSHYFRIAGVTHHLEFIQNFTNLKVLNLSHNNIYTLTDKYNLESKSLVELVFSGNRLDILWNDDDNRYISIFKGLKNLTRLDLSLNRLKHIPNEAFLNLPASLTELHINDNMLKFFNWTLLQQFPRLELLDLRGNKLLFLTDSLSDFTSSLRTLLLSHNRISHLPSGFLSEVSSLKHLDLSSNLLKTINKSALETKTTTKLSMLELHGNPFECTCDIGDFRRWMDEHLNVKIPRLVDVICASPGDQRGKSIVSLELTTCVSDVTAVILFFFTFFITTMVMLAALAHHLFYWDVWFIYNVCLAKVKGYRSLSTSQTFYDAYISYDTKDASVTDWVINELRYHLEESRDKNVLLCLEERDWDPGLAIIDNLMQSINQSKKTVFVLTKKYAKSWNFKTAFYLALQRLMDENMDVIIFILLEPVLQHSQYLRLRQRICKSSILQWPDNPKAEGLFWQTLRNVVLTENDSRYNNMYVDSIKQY
Test: HEK-Blue hTLR8 SEAP reporter gene agonist assay
Settings: HEK-Blue hTLR8 cells, 16 to 22 hours incubation
Property label: EC50

{"columns": ["Chem smiles", "Tested system", "Result"],
 "data": [
  ["CCC[C@@H](C)Nc1nc(N)nc2ccn(Cc3ccc(CN(CCO)CCO)cc3OC)c(=O)c12", "human TLR8 (Homo sapiens, UniProt Q9NR97)", "30 nM"],
  ["CCCC(CCC)Nc1nc(N)nc2ccn(Cc3ccc(C(=O)N4CCNCC4)cc3OC)c(=O)c12", "human TLR8 (Homo sapiens, UniProt Q9NR97)", "660 nM"],
  ["CCC[C@@H](C)Nc1nc(N)nc2ccn(Cc3ccc(CN4CCN(CCN)CC4)cc3OC)c(=O)c12", "human TLR8 (Homo sapiens, UniProt Q9NR97)", "9 nM"],
  ["CCC[C@@H](C)Nc1nc(N)nc2ccn(Cc3ccc(CN4CCN(CCCO)CC4)cc3OC)c(=O)c12", "human TLR8 (Homo sapiens, UniProt Q9NR97)", "40 nM"],
  ["CCCCNc1nc(N)nc2ccn(Cc3ccc(CN4CCCC4)cc3F)c(=O)c12", "human TLR8 (Homo sapiens, UniProt Q9NR97)", "88 nM"],
  ["CCC[C@@H](C)Nc1nc(N)nc2ccn(Cc3ccc(OCCNC)nc3)c(=O)c12", "human TLR8 (Homo sapiens, UniProt Q9NR97)", "40 nM"],
  ["CCC[C@@H](C)Nc1nc(N)nc2ccn(Cc3ccc(CN4CCCC4)cc3)c(=O)c12", "human TLR8 (Homo sapiens, UniProt Q9NR97)", "47 nM"],
  ["CCCCNc1nc(N)nc2ccn(Cc3ccc(C(=O)N4CCN(C(C)C)CC4)cc3)c(=O)c12", "human TLR8 (Homo sapiens, UniProt Q9NR97)", "92 nM"],
  ["CCCCNc1nc(N)nc2ccn(Cc3ccc(CN4CCCC4)c(F)c3)c(=O)c12", "human TLR8 (Homo sapiens, UniProt Q9NR97)", "95 nM"],
  ["CCCCCCCCCC(=O)OC[C@H](CCC)Nc1nc(N)nc2ccn(Cc3ccc(CN4CCN(C)CC4)cc3OC)c(=O)c12", "human TLR8 (Homo sapiens, UniProt Q9NR97)", "30 nM"],
  ["CCC[C@@H](C)Nc1nc(N)nc2ccn(Cc3ccc(C(=O)N4CCNCC4)cc3OC)c(=O)c12", "human TLR8 (Homo sapiens, UniProt Q9NR97)", "12 nM"],
  ["CCC[C@@H](C)Nc1nc(N)nc2ccn(Cc3ccc(C(=O)N4CC5CC(C4)N5)cc3OC)c(=O)c12", "human TLR8 (Homo sapiens, UniProt Q9NR97)", "7 nM"],
  ["CCC[C@@H](C)Nc1nc(N)nc2ccn(Cc3ccc(CN4CCCC4)cc3OC)c(=O)c12", "human TLR8 (Homo sapiens, UniProt Q9NR97)", "40 nM"],
  ["CCC[C@@H](CO)Nc1nc(N)nc2ccn(Cc3ccc(CN4CCN(CCCCCCN)CC4)cc3OC)c(=O)c12", "human TLR8 (Homo sapiens, UniProt Q9NR97)", "35 nM"],
  ["CCCCNc1nc(N)nc2ccn(Cc3ccc(CN(CCO)CCO)cc3)c(=O)c12", "human TLR8 (Homo sapiens, UniProt Q9NR97)", "51 nM"]
]}

Provenance of the data: patent US20250059183A1
